# experimental-details: Inflammasome Signaling qHTS Counterscreen: IL-1-beta AlphaLISA counterscreen against the NCATS CANVASS Library (AID 1347381);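 further: cell-free check with purified IL-1β in medium and no THP-1 cells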
# protocol-conditions: Purified IL-1beta AlphaLISA signal interference counterscreen; series mostly up to 57.5 µM
Active and inactive are the calls of the source. The call rests on the fitted dose curve; in most records, active means well fitted curve in the direction sought with a large enough effect; inconclusive means small, poorly fitted or top-dose-only effect, or another doubt; inactive means no such curve, though single readings can be large or run the other way.
quantity: activity change, negative = inhibition

The cases that follow already have their activity change, negative = inhibition on record.
CC(=O)c1c(C)cc2c(c1O)C(=O)c1c(O)cc(O)cc1C2=O; inactive
C=CC(CCCCC)C1C(=O)NC(=O)C1C(=O)C1C(/C=C/C)C=CC2CC(C(=O)O)CC(C)C21 (stereo not given); inactive
COc1cc2c(cc1OC)[C@@H](c1ccc3c(c1)OCO3)C(C)C(C)C2=O (stereo not given in full); inactive
COC(=O)[C@@]12Oc3cccc(O)c3C(O)=C1C(=O)C[C@H](C)[C@H]2O; inactive

Consider now this further compound.
Requested field: activity change, negative = inhibition. Item: C[C@]12CC[C@]3(C1)[C@H](CC2=O)C[C@@H](OC(=O)c1ccccc1)[C@H]1[C@](C)(C(=O)O)CCC[C@@]13C
inactive
